- Tested on: Danio rerio embryo/larva
- experiment: max % larvae with blood pooling across tested concentrations; higher = more toxic; extreme values may be limits of the assay
- condition-description: exposure: 6-8 hpf to 5 dpf, scored at 6 dpf
metric: max % larvae

Here are 4 molecules together with their reported answers.
OCCCC(F)(F)C(F)(F)C(F)(F)C(F)(F)C(F)(F)C(F)(F)C(F)(F)F [7:3 Fluorotelomer alcohol] (max tested concentration (log10 uM): 2): 16.7%
O=C(CC(=O)C(F)(F)C(F)(F)C(F)(F)F)c1cccs1 [(Perfluorobutyryl)-2-thenoylmethane] (max tested concentration (log10 uM): 0.477121): 0%
O=S(=O)(O)C(F)(F)C(F)(F)C(F)(F)C(F)(F)F [Perfluorobutanesulfonic acid] (max tested concentration (log10 uM): 2): 0%
O=C(O)C(F)(F)OC(F)(F)C(F)(F)OC(F)(F)C(F)(F)OC(F)(F)F [Perfluoro-3,6,9-trioxadecanoic acid] (max tested concentration (log10 uM): 2): 40%

// moving on: another record for max % larvae
Asked: Need max % larvae, item O=C(Cl)C(F)(F)C(F)(F)C(F)(F)C(F)(F)C(F)(F)C(F)(F)F [Perfluoroheptanoyl chloride] (max tested concentration (log10 uM): 2)
Given back: 0%

---

- System: Danio rerio embryo/larva
- experiment: max % larvae with abnormal position across tested concentrations; higher = more toxic; extreme values may be limits of the assay
- condition-description: exposure: 6-8 hpf to 5 dpf, scored at 6 dpf
Give Yes when the value for max % larvae is at least 4%. Give No when it is less.

Asked: Determine whether this compound has max % larvae no lower than 4%: C=CC(=O)OCC(F)(F)C(F)(F)C(F)(F)COC(=O)C=C [1H,1H,5H,5H-Perfluoro-1,5-pentanediol diacrylate] (max tested concentration (log10 uM): 1)
Given back: No

Asked: Would you kindly repeat that for OCC(F)(F)C(F)(F)C(F)(F)C(F)(F)C(F)(F)C(F)(F)F [6:1 Fluorotelomer alcohol] (max tested concentration (log10 uM): 2) ?
Given back: Yes

Asked: What do we get for O=C(O)C(F)(F)C(F)(F)C(F)(F)C(F)(F)C(F)(F)C(F)(F)C(F)(F)F [Ammonium perfluorooctanoate] (max tested concentration (log10 uM): 2) ?
Given back: No

Asked: Ok, now O=S(=O)(O)C(F)(F)C(F)(F)C(F)(F)C(F)(F)C(F)(F)C(F)(F)C(F)(F)C(F)(F)F [Potassium perfluorooctanesulfonate] (max tested concentration (log10 uM): 2)
Given back: Yes

Asked: Also, FC(F)(F)C(F)(F)C(F)(F)CC1CO1 (stereo unspecified) [1H,1H-Heptafluorobutyl epoxide] (max tested concentration (log10 uM): 2) please.
Given back: No

Asked: Continue with OCC(F)(F)C(F)(F)C(F)(F)C(F)(F)C(F)(F)C(F)(F)CO [1H,1H,8H,8H-Perfluorooctane-1,8-diol] (max tested concentration (log10 uM): 2)
Given back: Yes

Asked: Input O=C(O)C(F)(F)C(F)(F)C(F)(F)C(F)(F)C(F)(F)F [Perfluorohexanoic acid] (max tested concentration (log10 uM): 2)
Given back: No

Asked: Entry OCCC(F)(F)C(F)(F)C(F)(F)C(F)(F)C(F)(F)C(F)(F)F [2-(Perfluorohexyl)ethanol] (max tested concentration (log10 uM): 2) please
Given back: Yes

Asked: What about O=S(=O)(O)C(F)(F)C(F)(F)C(F)(F)C(F)(F)C(F)(F)C(F)(F)C(F)(F)F [Perfluoroheptanesulfonic acid] (max tested concentration (log10 uM): 1.90309) ?
Given back: Yes

Asked: Then this compound: O=C(Cl)C(F)(F)C(F)(F)C(F)(F)C(=O)Cl [Hexafluoroglutaryl chloride] (max tested concentration (log10 uM): 2)
Given back: No

Asked: Same thing, different compound: OCCC(F)(F)C(F)(F)C(F)(F)C(F)(F)C(F)(F)C(F)(F)C(F)(F)C(F)(F)F [2-(Perfluorooctyl)ethanol] (max tested concentration (log10 uM): 2)
Given back: Yes
